Entry source: paper PMC5916898

# study_target: KLF16 (Homo sapiens, UniProt Q9BXK1)
# Sequence (Q9BXK1 whole entry): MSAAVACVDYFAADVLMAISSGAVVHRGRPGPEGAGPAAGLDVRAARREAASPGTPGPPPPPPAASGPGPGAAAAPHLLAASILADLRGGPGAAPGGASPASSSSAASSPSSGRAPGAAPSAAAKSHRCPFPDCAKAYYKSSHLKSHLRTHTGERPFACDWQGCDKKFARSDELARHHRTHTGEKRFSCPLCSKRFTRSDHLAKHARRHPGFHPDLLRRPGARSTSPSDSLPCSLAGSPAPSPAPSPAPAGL
# assay_info: pulldown; 150 mM NaCl, 50 mM Tris pH 8, 0.25% NP-40, 1 mM TCEP; 4 C, 2 h; 100 ug HeLa nuclear lysate
# condition_summary: protein: extract; label: 5' biotin (strand 1)
measured_endpoint: apparent K (half saturation) (nM)
A number alone suffices; assume nM.

Task item: Please report apparent K (half saturation) for the following binder: TATA-box (dsDNA) DNA 1: GCGGCGCTCTATATAAGTGGGCAGTG DNA 2: CACTGCCCACTTATATAGAGCGCCGC
Reply: 151

Task item: Please report apparent K (half saturation) for the following binder: CTCF (dsDNA) DNA 1: TCAGAGTGGCGGCCAGCAGGGGGCGCCCTTGCCAGA DNA 2: TCTGGCAAGGGCGCCCCCTGCTGGCCGCCACTCTGA
Reply: 109

Task item: Please report apparent K (half saturation) for the following binder: NF-Y (dsDNA) DNA 1: ATTGACCAATCAGAGGTAGGATGAT DNA 2: ATCATCCTACCTCTGATTGGTCAAT
Reply: 200

Task item: Please report apparent K (half saturation) for the following binder: SP/KLF wild-type (dsDNA) DNA 1: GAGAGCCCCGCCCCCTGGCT DNA 2: AGCCAGGGGGCGGGGCTCTC
Reply: 14.5
